Tested on: Plasmodium berghei
Experiment: Screen against P. berghei liver stage (PbLuc), transformed with Luciferase, at 2uM
Format: functional, HepG2
Details: tested at 2 uM
Screen size: about 68,000 compounds; about 2,700 (4%) showed an effect of 50% or more. This excerpt belongs to a sample that is enriched for strong results.
property.measured: INHIBITION (%)

>>> recorded_number("COCC(=O)NC1CC2(CCN(Cc3ccco3)CC2)c2ccccc21 (stereo unspecified)")
-40.39
>>> recorded_number("CCN1CC2(CCN(CC3CCCO3)CC2)OC1=O (stereo unspecified)")
6.85
>>> recorded_number("Cn1ccnc1CN1C[C@H]2CN(S(=O)(=O)c3ccccc3)CCN2C1=O")
15.02
>>> recorded_number("CCN1CC2(CCN(CC3COCCO3)CC2)OC1=O (stereo unspecified)")
65.1
>>> recorded_number("Fc1cccc(N2CCCC3(C2)CN(c2ncccn2)CCO3)c1 (stereo unspecified)")
39.9
>>> recorded_number("CCn1ccc2cc(NC(=O)CC3CCCO3)ccc21 (stereo unspecified)")
-73.93

====

Tested on: Plasmodium berghei
Assay: Screen against P. berghei liver stage (PbLuc), transformed with Luciferase, at 2uM
Assay type: functional, HepG2
Conditions: tested at 2 uM
In all, about 68,000 compounds went through this assay and about 2,700 (4%) showed an effect of 50% or more. Only a selection was taken, and strong results are over-represented in it overall.
Kindly apply the following: y if INHIBITION is less than 40%, n in every other case.

>>> class("O=C1CCN(C(=O)C2(c3ccc(F)cc3)CCOCC2)CCN1")
"n"
>>> class("OC1(Cn2ccc3ncccc32)CCN(Cc2cccnc2)CC1")
"n"
>>> class("CCc1nc(C2CCCN2Cc2nnc(C3CCC3)o2)no1 (stereo not given)")
"y"
>>> class("CC(C)c1nc(C2CCCN2c2cnc3cc(F)c(F)cc3n2)no1 (stereo not given)")
"n"
>>> class("CC(=O)N(Cc1noc(C)n1)C1CCN(Cc2ncc(C(C)C)o2)C1 (stereo not given)")
"y"
>>> class("CC(=O)N(Cc1ncc(C)o1)C1CCN(Cc2noc(C)n2)C1 (stereo not given)")
"n"
>>> class("CC(C)CCc1nc(CNCC2CCCN2c2cccnn2)cs1 (stereo not given)")
"y"
>>> class("CC(C)c1nc(C2CCCN2Cc2ccno2)no1 (stereo not given)")
"y"
>>> class("CC(=O)N(Cc1ncc(C)o1)C1CCN(Cc2ccccc2F)C1 (stereo not given)")
"y"
>>> class("Cc1cc(N(C)C)nc(N2CCn3c(nnc3C(C)C)C2)n1")
"y"
>>> class("Cc1cccc(CN2CCc3onc(Cn4cccc4)c3C2)n1")
"y"
>>> class("CC(=O)N(Cc1ncc(C)o1)C1CCN(Cc2cccnc2)C1 (stereo not given)")
"n"
>>> class("O=C1CCN(C(=O)C2(c3ccc(F)cc3)CCCC2)CCN1")
"y"
>>> class("OC1(Cn2ccc3ncccc32)CCN(Cc2cc(F)cc(F)c2)CC1")
"y"
>>> class("CC(C)c1nc(C2CCCN2Cc2ccncc2Cl)no1 (stereo not given)")
"n"
>>> class("CC(=O)N(Cc1ncc(C)o1)C1CCN(Cc2cc(C)on2)C1 (stereo not given)")
"y"
>>> class("CC(C)c1nc(C2CCCN2Cc2ccon2)no1 (stereo not given)")
"n"
>>> class("Cc1nc(C2CCCN2Cc2ccon2)no1 (stereo not given)")
"y"
>>> class("Cc1nc(N2CCCC2)nc2c1CCN(Cc1nccn1C)CC2")
"y"
>>> class("Cc1cccc(CN2CCc3onc(CN(C)C)c3C2)n1")
"y"
>>> class("C1CC(c2nnc(CN3CCCC3c3noc(C4CC4)n3)o2)C1 (stereo not given)")
"y"
>>> class("Cc1cc(C(F)(F)F)nc(N2CCN(Cc3nccn3C)CC2)n1")
"y"
>>> class("CC(C)(C)c1nc(CC(=O)Nc2cnccc2O)cs1")
"y"
>>> class("CC(=O)N(Cc1noc(C)n1)C1CCN(Cc2ccncc2Cl)C1 (stereo not given)")
"n"
>>> class("CC(C)c1nc(C2CCCN2c2ccnc(C3CCCC3)n2)no1 (stereo not given)")
"y"

====

This listing pairs molecules with measured INHIBITION.
Tested on: Plasmodium berghei
Test: Screen against P. berghei liver stage (PbLuc), transformed with Luciferase, at 2uM
Type: functional, HepG2
Settings: tested at 2 uM
The whole screen tested about 68,000 compounds, of which about 2,700 (4%) showed an effect of 50% or more. This excerpt belongs to a sample that is enriched for strong results.
property.measured: INHIBITION (%)

>>> recorded_number("Cc1ccc(C(C(=O)N(C)CCc2cn[nH]c2)N(C)C)cc1 (stereo not given)")
69.67
>>> recorded_number("Cc1cc(C)n(C2CCCN(C(=O)c3ccc(N(C)C)nc3)C2)n1 (stereo not given)")
-35.65
>>> recorded_number("Cc1nn(C)c(C)c1CN(C)S(=O)(=O)c1c(C)n[nH]c1C")
16.49
>>> recorded_number("Cc1nc(COCc2cnc3n2CCN(CC2CCC2)C3C)cs1 (stereo not given)")
25.35
>>> recorded_number("Cc1ccc(CN[C@@H]2CO[C@H](CNS(=O)(=O)c3ccccc3)[C@H]2O)cc1")
-6.18
>>> recorded_number("CCCS(=O)(=O)N1CCC2(CCN(Cc3cccc(F)c3)C2=O)C1 (stereo not given)")
-25.61
>>> recorded_number("O=C(Cn1nc(Br)nc1Br)N1CCCC1")
-14.58
>>> recorded_number("CC(C)(NCC(=O)NCCC#N)c1ccc2c(c1)OCCO2")
-9.66
>>> recorded_number("COCCN1CCCn2cnc(CNC3CCCC3)c2C1")
-24.29
>>> recorded_number("CS(=O)(=O)N1CC2(CCN(C3COC3)C2)Cc2ccccc21 (stereo not given)")
26.56
>>> recorded_number("Cc1cc(C)cc(CCC(=O)N(C)CCc2cn[nH]c2)c1")
-4.26
>>> recorded_number("CCc1nc(CN2CCCN(C(=O)COCC3CC3)CC2)cs1")
3.9
>>> recorded_number("CNC(=O)CN1CC[C@H]2CN(C(=O)c3ccc(C)nc3)C[C@H]2C1")
40.83
>>> recorded_number("CC(C)CCN1C[C@@H]2OCCN(c3ncc(F)cn3)[C@@H]2C1")
29.74
>>> recorded_number("c1ccn(Cc2nnc3n2CCCN(c2cnccn2)C3)c1")
-11.68
>>> recorded_number("FC(F)(F)c1n[nH]c2c1CN(Cc1cn3ccccc3n1)CC2")
-7.14
>>> recorded_number("Cc1nn(-c2ccccc2)c(C)c1CN1CCNCC1")
1.79
>>> recorded_number("CC(=O)NCc1cc2n(n1)CCN(Cc1ccccc1OC(F)(F)F)C2")
27.52
>>> recorded_number("Cc1cc(C(=O)N(C)Cc2cccs2)nc(N2CCCC2)n1")
50.9
>>> recorded_number("Cc1nc(C)n(Cc2cccc(NC(=O)N(C)CCC(C)O)c2)n1 (stereo not given)")
-3.2
>>> recorded_number("CNC(=O)CN1CC[C@H]2CN(C(=O)c3cccc(C)c3)C[C@H]2C1")
30.63
>>> recorded_number("COCCNC(=O)c1nnc2ccc(N3CCOCC3)cc2n1")
26.54
>>> recorded_number("COCCN(Cc1ccoc1)S(=O)(=O)c1ccc(OC)c(Cl)c1")
1.04
>>> recorded_number("Cc1nc(-c2cnn(C)c2)sc1C(=O)NCc1cccc(CN(C)C)c1")
-6.4
>>> recorded_number("Cc1cccc(C(=O)N2CC(=O)N(c3ccccc3Cl)CC2C)n1 (stereo not given)")
6.75
>>> recorded_number("[O-][S+](CCN1CCc2[nH]nc(C(F)(F)F)c2C1)c1ccccc1 (stereo not given)")
-62.71
>>> recorded_number("Cc1nc(CN2CCC3(CCN(C(=O)c4ccoc4C)CC3)C2)cs1")
-13.88
>>> recorded_number("O=C(c1cnccn1)N1CCOC2(CCN(Cc3ccsc3)CC2)C1")
-3.36
>>> recorded_number("Cc1nnc(C(C)N(C)Cc2c(C)nn(-c3ccccc3C)c2C)o1 (stereo not given)")
29.39
>>> recorded_number("CC(=O)N1CC[C@H]2OCC[C@@]2(C(=O)NCCc2ccccn2)C1")
7.55
>>> recorded_number("c1cc(-c2noc(C3CCC3)n2)cc(N2CCCCC2)n1")
-23.44
>>> recorded_number("CN1CC[C@H]2OCC[C@@]2(C(=O)NCCc2ccccn2)C1")
23.81
>>> recorded_number("COCCC(=O)N1CCCC1c1nc(O)cc(C(C)C)n1 (stereo not given)")
-1.69
>>> recorded_number("Cn1ncc2c1CN(C(=O)Cc1ccccn1)CC2COCC1CC1 (stereo not given)")
-4.69
>>> recorded_number("CN1CCC2(CCN(C(=O)c3ccccc3)CC2)C1")
39.18
>>> recorded_number("Cc1cnn(CC2CCCN2C(=O)c2ccc(-n3cccn3)nc2)c1 (stereo not given)")
-26.85
>>> recorded_number("CCS(=O)(=O)N1CCC2(CCCN(Cc3ccc(F)c(F)c3)C2=O)C1 (stereo not given)")
50.59
>>> recorded_number("CCCN1CCC(Cc2noc(-c3cc4cccnc4nc3C)n2)CC1")
38.91
>>> recorded_number("Fc1ccc(CN2CCO[C@H]3[C@H](OCc4ccncc4)CC[C@@H]32)cc1")
4.54
>>> recorded_number("Cc1ccccc1-n1nc(C)c(CN(C)C(C)Cc2ccccn2)c1C (stereo not given)")
-74.1
>>> recorded_number("CC(C)(C)C(=O)N1C[C@H](c2ccsc2)[C@H]2CN(C3CCCCC3)CC[C@H]21")
25.41
>>> recorded_number("O=C(c1cnc(-c2cccnc2)nc1)N1CCC(c2ccncc2)CC1")
-70.5
>>> recorded_number("O=C(c1ccc(Cl)s1)N1CCCn2nc(CN3CC[C@H](F)C3)cc2C1")
-13.81
>>> recorded_number("Cc1cc(C(=O)N(C)Cc2cccs2)nc(N2CCCCC2)n1")
-14.24
>>> recorded_number("CCN(CC)C(=O)[C@@H]1C[C@H](N)CN1c1nnc(-c2ccccc2)s1")
-51.55
